For each record, write down the corresponding b value of Equation (I) (dissociation mode: b<0.241 single, b≥0.241 multiple).
subject.of.test: human serum albumin (HSA) (Homo sapiens, UniProt P02768)
measurement.conditions: HSA sensor chip; peptide concentration per Table 5
I only need the number, thanks.

Incoming: So what does the record say about b value of Equation (I) (dissociation mode: b<0.241 single, b≥0.241 multiple) for IS 13mer: the 237 to 249th fragments of the amino acid sequence of HSA; SEQ ID NO: 21, AWAVARLSQRFPK (listed as Homo sapiens) ?
Outgoing: 0.756

Incoming: // same read-out, input: Lys-decapeptide (KKKKKKKKKK; Synthetic Lys decapeptide) [(Lys) 10]
Outgoing: 0.669

Incoming: // same read-out, input: kininogen (HNLGHGHKHERDQGHGHQR; listed as Homo sapiens)
Outgoing: 1.093

Incoming: // same read-out, input: ELN 11mer: the 548 to 558th fragments of the amino acid sequence of elastin; SEQ ID NO: 20, GVPGLGVGAGV (listed as Homo sapiens)
Outgoing: 0

====

For each record, write down the corresponding Δλ (maximum layer thickness change amount, second information).
subject.of.test: human serum albumin (HSA) (Homo sapiens, UniProt P02768)
measurement.conditions: HSA sensor chip; peptide concentration per Table 5
Provide only the numeric value, understood in nm.

Incoming: So what does the record say about Δλ (maximum layer thickness change amount, second information) for kininogen (HNLGHGHKHERDQGHGHQR; listed as Homo sapiens) ?
Outgoing: 0.082

Incoming: // same read-out, input: Lys-decapeptide (KKKKKKKKKK; Synthetic Lys decapeptide) [(Lys) 10]
Outgoing: 0.045

Incoming: // same read-out, input: ELN 11mer: the 548 to 558th fragments of the amino acid sequence of elastin; SEQ ID NO: 20, GVPGLGVGAGV (listed as Homo sapiens)
Outgoing: 0.043

Incoming: // same read-out, input: IS 13mer: the 237 to 249th fragments of the amino acid sequence of HSA; SEQ ID NO: 21, AWAVARLSQRFPK (listed as Homo sapiens)
Outgoing: 0.061

====

For each record, write down the corresponding Koff (dissociation rate constant, first information).
subject.of.test: human serum albumin (HSA) (Homo sapiens, UniProt P02768)
measurement.conditions: pH 6.9
Provide only the numeric value, understood in s⁻¹.

Incoming: So what does the record say about Koff (dissociation rate constant, first information) for ACTH15: SEQ ID NO: 11, YSMEHFRWGKPVGKK (listed as Homo sapiens) ?
Outgoing: 0.01147

Incoming: // same read-out, input: ELN 11mer: the 548 to 558th fragments of the amino acid sequence of elastin; SEQ ID NO: 20, GVPGLGVGAGV (listed as Homo sapiens)
Outgoing: 0.00016

Incoming: // same read-out, input: Lys-decapeptide (KKKKKKKKKK; Synthetic Lys decapeptide) [(Lys) 10]
Outgoing: 0.0002

Incoming: // same read-out, input: IS 13mer: the 237 to 249th fragments of the amino acid sequence of HSA; SEQ ID NO: 21, AWAVARLSQRFPK (listed as Homo sapiens)
Outgoing: 0.01708

Incoming: // same read-out, input: His-decapeptide (HHHHHHHHHH; Synthetic His decapeptide) [(His) 10]
Outgoing: 0.00073

Incoming: // same read-out, input: kininogen (HNLGHGHKHERDQGHGHQR; listed as Homo sapiens)
Outgoing: 0.00493

Ref: patent US10976314B2
